# TESTED_ON: Voltage-dependent N-type calcium channel subunit alpha-1B (Homo sapiens)
# TEST_DETAILS: disruptors of CaV2.2 binding to Mint1 – biochemical, HTRF (AID 2073)
# EXPERIMENTAL_SETUP: HTRF protein-protein interaction, Mint1-CaV2.2; at 20 µM; stronger effect = higher value
The campaign covered roughly 290,000 compounds. About 570 (0.2%) were called active. Another 1% or so got no clear call; they are omitted. The sample holds actives, similar compounds and a random draw of the others, so the mix is not that of the screen.
A collection of compounds and their measured inhibition

{"COMPOUND": "Nc1c(C(=O)N/N=C/c2cccnc2)oc2nc(-c3ccco3)cc(-c3ccco3)c12", "TESTED_ON": "Voltage-dependent N-type calcium channel subunit alpha-1B (Homo sapiens)", "OUTPUT_UNIT": "%", "inhibition": 44.8}
{"COMPOUND": "CC(NCC(O)c1ccc([N+](=O)[O-])cc1)C12CC3CC(CC(C3)C1)C2 (configuration not stated)", "TESTED_ON": "Voltage-dependent N-type calcium channel subunit alpha-1B (Homo sapiens)", "OUTPUT_UNIT": "%", "inhibition": 0.6}
{"COMPOUND": "Nc1c(C(=O)Nc2ccccc2)sc2nc3c(c(-c4ccco4)c12)CCCC3", "TESTED_ON": "Voltage-dependent N-type calcium channel subunit alpha-1B (Homo sapiens)", "OUTPUT_UNIT": "%", "inhibition": 2.1}
{"COMPOUND": "COc1ccc(S(=O)(=O)N2c3ccccc3OCC2C(C)(C)C)cc1 (configuration not stated)", "TESTED_ON": "Voltage-dependent N-type calcium channel subunit alpha-1B (Homo sapiens)", "OUTPUT_UNIT": "%", "inhibition": 50.4}
{"COMPOUND": "Cc1ccc(S(=O)(=O)N2c3ccccc3OCC2C(C)(C)C)cc1 (configuration not stated)", "TESTED_ON": "Voltage-dependent N-type calcium channel subunit alpha-1B (Homo sapiens)", "OUTPUT_UNIT": "%", "inhibition": 1.7}
{"COMPOUND": "COc1ccc(S(=O)(=O)N2c3cc(C)ccc3OCC2C(C)(C)C)cc1 (configuration not stated)", "TESTED_ON": "Voltage-dependent N-type calcium channel subunit alpha-1B (Homo sapiens)", "OUTPUT_UNIT": "%", "inhibition": -0.4}
{"COMPOUND": "CC(=O)Nc1ccc(C(=O)/C=C/c2ccco2)cc1", "TESTED_ON": "Voltage-dependent N-type calcium channel subunit alpha-1B (Homo sapiens)", "OUTPUT_UNIT": "%", "inhibition": 30.9}
{"COMPOUND": "CCc1ccccc1NC(=S)NC1CC2CCC(C1)N2Cc1ccc(F)cc1 (configuration not stated)", "TESTED_ON": "Voltage-dependent N-type calcium channel subunit alpha-1B (Homo sapiens)", "OUTPUT_UNIT": "%", "inhibition": -9.8}
{"COMPOUND": "CC1CCN(C(=O)CCc2ccc(S(=O)(=O)NC(C)C)cc2)CC1", "TESTED_ON": "Voltage-dependent N-type calcium channel subunit alpha-1B (Homo sapiens)", "OUTPUT_UNIT": "%", "inhibition": 28.5}
{"COMPOUND": "CN(CCOc1ccc(Cl)cc1)Cc1cccc(S(=O)(=O)N(C)C)c1", "TESTED_ON": "Voltage-dependent N-type calcium channel subunit alpha-1B (Homo sapiens)", "OUTPUT_UNIT": "%", "inhibition": -2.1}
{"COMPOUND": "CCC(C)NC(=S)N(CCc1ccccc1)Cc1cc2cc(OC)c(OC)cc2[nH]c1=O (configuration not stated)", "TESTED_ON": "Voltage-dependent N-type calcium channel subunit alpha-1B (Homo sapiens)", "OUTPUT_UNIT": "%", "inhibition": 7.1}
{"COMPOUND": "O=C(/C=C/c1ccco1)c1ccc(NC(=O)C23CC4CC(CC(C4)C2)C3)cc1", "TESTED_ON": "Voltage-dependent N-type calcium channel subunit alpha-1B (Homo sapiens)", "OUTPUT_UNIT": "%", "inhibition": 67.9}
{"COMPOUND": "COc1ccc(-c2cc(C(F)(F)F)c(C#N)c(SCC(=O)O)n2)cc1", "TESTED_ON": "Voltage-dependent N-type calcium channel subunit alpha-1B (Homo sapiens)", "OUTPUT_UNIT": "%", "inhibition": 22}
{"COMPOUND": "COCCCNC(=O)Cn1nnc(-c2ccc(NC(=O)c3ccc(F)cc3)cc2)n1", "TESTED_ON": "Voltage-dependent N-type calcium channel subunit alpha-1B (Homo sapiens)", "OUTPUT_UNIT": "%", "inhibition": 25.2}
{"COMPOUND": "O=C1CSC(c2ccccc2)N1c1nnc(C23CC4CC(CC(C4)C2)C3)s1 (configuration not stated)", "TESTED_ON": "Voltage-dependent N-type calcium channel subunit alpha-1B (Homo sapiens)", "OUTPUT_UNIT": "%", "inhibition": 1.5}
{"COMPOUND": "O=[N+]([O-])c1cc(Cl)ccc1N1CCCC1", "TESTED_ON": "Voltage-dependent N-type calcium channel subunit alpha-1B (Homo sapiens)", "OUTPUT_UNIT": "%", "inhibition": -1.5}
{"COMPOUND": "O=C(/C=C\\c1ccco1)c1ccc(NC(=O)c2ccco2)cc1", "TESTED_ON": "Voltage-dependent N-type calcium channel subunit alpha-1B (Homo sapiens)", "OUTPUT_UNIT": "%", "inhibition": 68.1}
{"COMPOUND": "Nc1c(C(=O)Nc2ccccc2)sc2nc3c(c(-c4ccco4)c12)CCC3", "TESTED_ON": "Voltage-dependent N-type calcium channel subunit alpha-1B (Homo sapiens)", "OUTPUT_UNIT": "%", "inhibition": 29.5}
{"COMPOUND": "COC(=O)C1=C(C)NC(C)=C(C(=O)OCC2CCCO2)C1c1cccc(Br)c1 (configuration not stated)", "TESTED_ON": "Voltage-dependent N-type calcium channel subunit alpha-1B (Homo sapiens)", "OUTPUT_UNIT": "%", "inhibition": 13.6}
{"COMPOUND": "CNC(=S)N(CCc1ccccc1)Cc1cc2cc(OC)c(OC)cc2[nH]c1=O", "TESTED_ON": "Voltage-dependent N-type calcium channel subunit alpha-1B (Homo sapiens)", "OUTPUT_UNIT": "%", "inhibition": 65.8}
{"COMPOUND": "O=S(=O)(c1ccc(F)c(F)c1)N1CCCc2ccccc21", "TESTED_ON": "Voltage-dependent N-type calcium channel subunit alpha-1B (Homo sapiens)", "OUTPUT_UNIT": "%", "inhibition": -1.2}
{"COMPOUND": "Nc1c(C(=O)NCC2CCCO2)sc2nc3c(c(-c4ccco4)c12)CC/C3=C\\c1ccco1 (configuration not stated)", "TESTED_ON": "Voltage-dependent N-type calcium channel subunit alpha-1B (Homo sapiens)", "OUTPUT_UNIT": "%", "inhibition": 86.1}

* * *

# TESTED_ON: Voltage-dependent N-type calcium channel subunit alpha-1B (Homo sapiens)
# TEST_DETAILS: disruptors of CaV2.2 binding to Mint1 – biochemical, HTRF (AID 2073)
# EXPERIMENTAL_SETUP: HTRF protein-protein interaction, Mint1-CaV2.2; at 20 µM; stronger effect = higher value
Among all 290,000 compounds or so, about 570 (0.2%) were called active. Another 1% or so got no clear call; they are omitted. This is one part of a sample in which actives are shown more often than they occur.

{"MOLECULE": "Cc1onc(-c2ccccc2)c1C(=O)OCC(=O)NCc1ccc(F)cc1", "OUTPUT_UNIT": "%", "inhibition": -0.7}
{"MOLECULE": "CCOC(=O)c1ccc(N=c2scc(C)n2CC)cc1", "OUTPUT_UNIT": "%", "inhibition": 3.7}
{"MOLECULE": "COc1cc(/C=N/n2cnnc2)ccc1OC(=O)c1ccco1", "OUTPUT_UNIT": "%", "inhibition": 1.6}
{"MOLECULE": "O=C(COc1ccccc1Cl)Nc1ccc(CN2CCOCC2)cc1", "OUTPUT_UNIT": "%", "inhibition": -4.3}
{"MOLECULE": "N#CCCN1CCCN(CCC#N)CCN(CCC#N)CCCN(CCC#N)CC1", "OUTPUT_UNIT": "%", "inhibition": -13.6}
{"MOLECULE": "NC1=NC(=Nc2ccc(Br)cc2)c2ccccc21", "OUTPUT_UNIT": "%", "inhibition": -1.5}
{"MOLECULE": "COc1ccc(/C=C/c2ccc3c(Br)ccc(O)c3n2)cc1", "OUTPUT_UNIT": "%", "inhibition": 32.5}
{"MOLECULE": "O=C(Nc1ccc(C2=NCCN2)cc1)c1ccc(C(=O)Nc2ccc(C3=NCCN3)cc2)c(Cl)c1", "OUTPUT_UNIT": "%", "inhibition": 51.6}
{"MOLECULE": "Cc1cc(C)cc(C(N)=Nc2cccc(C#N)c2)c1", "OUTPUT_UNIT": "%", "inhibition": 4.9}
{"MOLECULE": "Cc1ccc(N=c2sc(C)c(C)n2C)cc1", "OUTPUT_UNIT": "%", "inhibition": -35.3}
{"MOLECULE": "c1cnc(-c2noc(CN3CCN(C4C5CC6CC(C5)CC4C6)CC3)n2)cn1 (stereo unspecified)", "OUTPUT_UNIT": "%", "inhibition": -1.9}
